These data points were gathered from patent US7312336B2.

Structures can show the parent of a compound that is named as a salt.
observation type: melting point

-- ask Which measured melting point value corresponds to CCN(CC)C(=O)c1ccc(C(=C2CCN(Cc3ccccc3)CC2)c2cccc(OC)c2)cc1 (as salt: HCl) ?
-- reply 100 to 110 °C

-- ask Entry to check: CCN(CC)C(=O)c1ccc(C(=C2CCN(Cc3ccccc3)CC2)c2ccc(Cl)cc2)cc1 (as salt: salt)
-- reply 100 to 110 °C

-- ask Consider next the compound CCN(CC)C(=O)c1ccc(C(=C2CCN(Cc3ccccc3)CC2)c2ccccc2)cc1 (as salt: HCl) in the same way.
-- reply 230 to 245 °C

-- ask // next record CCN(CC)C(=O)c1ccc(C(=C2CCNCC2)c2cccc3cccnc23)cc1 (as salt: HCl)
-- reply > 170 °C (dec.)

-- ask Try CCN(CC)C(=O)c1ccc(C(=C2CCN(Cc3ccc(Cl)cc3Cl)CC2)c2ccccc2)cc1 (as salt: HCl) next.
-- reply 95 to 110 °C

-- ask Query CCN(CC)C(=O)c1ccc(C(=C2CCN(Cc3ccc(OC)cc3)CC2)c2ccccc2)cc1 (as salt: HCl) next
-- reply 100 to 110 °C

-- ask CCN(CC)C(=O)c1ccc(C(O)(c2cccc(OC)c2)C2CCN(C(=O)OC(C)(C)C)CC2)cc1 (stereo not shown) ?
-- reply 95 to 103 °C

-- ask Now try CCN(CC)C(=O)c1ccc(C(=C2CCNCC2)c2cccc(OC)c2)cc1 (as salt: HCl) .
-- reply > 90 °C (dec.)

-- ask Thanks! And CCN(CC)C(=O)c1ccc(C(=C2CCN(C3CCCCC3)CC2)c2ccccc2)cc1 (as salt: HCl) ?
-- reply 105 to 109 °C

-- ask Entry CCN(CC)C(=O)c1ccc(C(O)(c2cccc3cccnc23)C2CCN(C(=O)OC(C)(C)C)CC2)cc1 (stereo not shown) please
-- reply 100 to 105 °C
